# Test system: Aspergillus fumigatus
# Experiment Summary: Antifungal activity against Aspergillus fumigatus 231 after 48 hrs by broth microdilution method
# Assay type: functional
# Condition: Aspergillus fumigatus, 231, 48 h
Below, each entry is listed alongside its reported MIC.

Smiles Repr: Cc1ccc(Cn2nnc(-c3cc([N+](=O)[O-])cc([N+](=O)[O-])c3)n2)cc1
MIC: > 500 µM
--
Smiles Repr: O=[N+]([O-])c1cc(-c2nnn(Cc3ccccc3F)n2)cc([N+](=O)[O-])c1
MIC: > 500 µM
--
Smiles Repr: Cc1ccc(Cn2nnnc2-c2cc([N+](=O)[O-])cc([N+](=O)[O-])c2)cc1
MIC: > 500 µM
--
Smiles Repr: O=[N+]([O-])c1cc(-c2nnn(Cc3ccc(Br)cc3)n2)cc([N+](=O)[O-])c1
MIC: > 500 µM
--
Smiles Repr: O=[N+]([O-])c1cc(-c2nnn(Cc3ccc(Cl)cc3)n2)cc([N+](=O)[O-])c1
MIC: > 500 µM
--
Smiles Repr: COc1ccc(Cn2nnnc2-c2cc([N+](=O)[O-])cc([N+](=O)[O-])c2)cc1
MIC: 500 µM
--
Smiles Repr: O=[N+]([O-])c1cc(-c2nnn(CSc3nnnn3Cc3ccccc3)n2)cc([N+](=O)[O-])c1
MIC: > 125 µM
--
Smiles Repr: O=[N+]([O-])c1cc(-c2nnn(Cc3cccc(Cl)c3)n2)cc([N+](=O)[O-])c1
MIC: > 500 µM
--
Smiles Repr: O=[N+]([O-])c1cc(-c2nnn(CSc3nnnn3-c3ccc(Cl)c(Cl)c3)n2)cc([N+](=O)[O-])c1
MIC: > 125 µM
--
Smiles Repr: Cn1nnnc1SCn1nnc(-c2cc([N+](=O)[O-])cc([N+](=O)[O-])c2)n1
MIC: > 500 µM

---

# System: Aspergillus fumigatus
# Experiment Summary: Antifungal activity against Aspergillus fumigatus 231 after 24 hrs by broth microdilution method
# Type: functional
# Condition: Aspergillus fumigatus, 231, 24 h
Below, each entry is listed alongside its reported MIC.

Smiles Repr: O=[N+]([O-])c1cc(-c2nnn(Cc3cccc(Cl)c3)n2)cc([N+](=O)[O-])c1
MIC: > 500 µM

Smiles Repr: O=[N+]([O-])c1cc(-c2nnnn2Cc2ccccc2)cc([N+](=O)[O-])c1
MIC: > 500 µM

Smiles Repr: O=[N+]([O-])c1cc(-c2nnn(Cc3cccc(Br)c3)n2)cc([N+](=O)[O-])c1
MIC: > 500 µM

Smiles Repr: COc1ccc(Cn2nnnc2-c2cc([N+](=O)[O-])cc([N+](=O)[O-])c2)cc1
MIC: 500 µM

Smiles Repr: COc1cccc(Cn2nnc(-c3cc([N+](=O)[O-])cc([N+](=O)[O-])c3)n2)c1
MIC: > 500 µM

---

# System: Enterococcus sp.
# Experiment Summary: Antibacterial activity against Enterococcus sp. HK14365/08 after 24 hrs by broth microdilution method
# Format: functional
# Condition: HK14365/08, 24 h

Compound: COc1ccc(Cn2nnnc2-c2cc([N+](=O)[O-])cc([N+](=O)[O-])c2)cc1
MIC: 62.5 µM
//
Compound: COc1ccc(Cn2nnc(-c3cc([N+](=O)[O-])cc([N+](=O)[O-])c3)n2)cc1
MIC: > 500 µM
//
Compound: O=[N+]([O-])c1cc(-c2nnnn2Cc2ccccc2)cc([N+](=O)[O-])c1
MIC: 62.5 µM
//
Compound: COc1cccc(-n2nnnc2SCn2nnc(-c3cc([N+](=O)[O-])cc([N+](=O)[O-])c3)n2)c1
MIC: > 125 µM
//
Compound: O=[N+]([O-])c1cc(-c2nnn(CSc3nnnn3-c3ccc(Cl)c(Cl)c3)n2)cc([N+](=O)[O-])c1
MIC: > 125 µM
//
Compound: O=[N+]([O-])c1cc(-c2nnn(CSc3nnnn3-c3ccccc3)n2)cc([N+](=O)[O-])c1
MIC: > 125 µM
//
Compound: CCCCCCCCCCCCn1nnc(-c2cc([N+](=O)[O-])cc([N+](=O)[O-])c2)n1
MIC: > 250 µM
//
Compound: O=[N+]([O-])c1cc(-c2nnn(Cc3ccc(Br)cc3)n2)cc([N+](=O)[O-])c1
MIC: > 125 µM
//
Compound: O=[N+]([O-])c1cc(-c2nnn(Cc3ccc(Cl)cc3)n2)cc([N+](=O)[O-])c1
MIC: > 500 µM
//
Compound: CN[C@H](CC(C)C)C(=O)N[C@H]1C(=O)N[C@@H](CC(N)=O)C(=O)N[C@H]2C(=O)N[C@H]3C(=O)N[C@H](C(=O)N[C@H](C(=O)O)c4cc(O)cc(O)c4-c4cc3ccc4O)[C@H](O)c3ccc(c(Cl)c3)Oc3cc2cc(c3O[C@@H]2O[C@H](CO)[C@@H](O)[C@H](O)[C@H]2O[C@H]2C[C@](C)(N)[C@H](O)[C@H](C)O2)Oc2ccc(cc2Cl)[C@H]1O [VANCOMYCIN]
MIC: 0.7 µM
//
Compound: O=[N+]([O-])c1cc(-c2nnn(CSc3nnnn3Cc3ccccc3)n2)cc([N+](=O)[O-])c1
MIC: > 125 µM
